test-target: T1, zebrafish PTH1R receptor, clone zPTH1R#29 (shorter 5' UT, 149 bp), transiently expressed in COS-7 cells (zebrafish (Danio rerio))
T1 construct: Full-length cDNA expressed on intact COS-7 cells; also called zPPR1#29; zPTH1R(FL)/pcDNAI/Amp
T1 chain: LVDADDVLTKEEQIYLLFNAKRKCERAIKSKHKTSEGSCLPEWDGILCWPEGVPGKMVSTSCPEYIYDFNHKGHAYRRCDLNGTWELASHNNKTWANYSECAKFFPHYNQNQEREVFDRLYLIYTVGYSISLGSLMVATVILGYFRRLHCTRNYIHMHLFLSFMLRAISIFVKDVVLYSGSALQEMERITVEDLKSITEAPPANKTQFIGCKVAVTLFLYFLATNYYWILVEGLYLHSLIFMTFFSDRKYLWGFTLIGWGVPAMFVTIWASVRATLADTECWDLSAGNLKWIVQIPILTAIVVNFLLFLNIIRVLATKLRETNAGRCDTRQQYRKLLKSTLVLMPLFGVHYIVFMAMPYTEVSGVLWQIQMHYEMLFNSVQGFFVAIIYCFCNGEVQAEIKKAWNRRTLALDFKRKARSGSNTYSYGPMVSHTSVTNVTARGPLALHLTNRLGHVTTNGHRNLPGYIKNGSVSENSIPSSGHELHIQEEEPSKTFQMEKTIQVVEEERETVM
experiment-summary: competitive radioligand binding on intact COS-7 cells expressing the receptor, room temperature; unlabeled hPTH, radioligand not clearly stated (125I-rPTH or 125I-PTHrP)
pIC50: −log10 of the molar value. No end group written: not given here.
quantity-measured: pIC50

Entry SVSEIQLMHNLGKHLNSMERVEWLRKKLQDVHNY-NH2 (Synthetic analog of human PTH(1-34) with Tyr at 34) [[Tyr34]hPTH(1-34)amide] : reported pIC50 = ?
~8.52
